Measured solubility, listed per entry for reference.
- test-summary: Solubility in 10% DMA (expressed as mean of 3 determinations)
- Format: physicochemical
- protocol-conditions: read-out: S
Use µg/mL as the unit, but write only the number.

Known solubility results, listed for orientation:
compound | solubility, µg/mL
COc1ccc(OC)c(C(=O)O[C@H]2C3[C@](C)(C(=O)[C@H](OC(=O)N4CCN(CCSSC)CC4)C4=C(C)[C@@H](OC(=O)[C@H](O)[C@H](C=C(C)C)NC(=O)OC(C)(C)C)C[C@]2(O)C4(C)C)C(O)C[C@H]2OC[C@@]32OC(C)=O)c1 (some centres undefined) | 26
COc1ccc(OC)c(C(=O)O[C@H]2C3[C@](C)(C(=O)[C@H](O)C4=C(C)[C@@H](OC(=O)[C@H](O)[C@H](C=C(C)C)NC(=O)OC(C)(C)C)C[C@]2(O)C4(C)C)C(OC(=O)CCOCCOCCOCCOCCSSC)C[C@H]2OC[C@@]32OC(C)=O)c1 (some centres undefined) | 11

Query: solubility; subject: COc1ccc(OC)c(C(=O)O[C@H]2C3[C@](C)(C(=O)[C@H](O)C4=C(C)[C@@H](OC(=O)[C@H](O)[C@H](C=C(C)C)NC(=O)OC(C)(C)C)C[C@]2(O)C4(C)C)C(OC(=O)CCSSC)C[C@H]2OC[C@@]32OC(C)=O)c1 (some centres undefined) 10

And the next one, COc1ccc(OC)c(C(=O)O[C@H]2C3[C@](C)(C(=O)[C@H](OC(=O)CCOCCOCCOCCOCCOCCOCCOCCOCCOCCOCCSSC)C4=C(C)[C@@H](OC(=O)[C@H](O)[C@H](C=C(C)C)NC(=O)OC(C)(C)C)C[C@]2(O)C4(C)C)C(O)C[C@H]2OC[C@@]32OC(C)=O)c1 (some centres undefined) ? 97

----------
Property: log10 of solubility; scope: individual molecules
- test-summary: Solubility in 10% Ethanol (expressed as mean of 3 determinations)
- Assay type: physicochemical
- protocol-conditions: read-out: S
Heads up, the numbers here are log10 of solubility in µg/mL units.

Sample answers from the record:
molecule | log10 of solubility
COc1ccc(OC)c(C(=O)O[C@H]2C3[C@](C)(C(=O)[C@H](O)C4=C(C)[C@@H](OC(=O)[C@H](O)[C@H](C=C(C)C)NC(=O)OC(C)(C)C)C[C@]2(O)C4(C)C)C(OC(=O)CCSSC)C[C@H]2OC[C@@]32OC(C)=O)c1 (stereo partly specified) | 0.30
COc1ccc(OC)c(C(=O)O[C@H]2C3[C@](C)(C(=O)[C@H](OC(=O)CCSSC)C4=C(C)[C@@H](OC(=O)[C@H](O)[C@H](C=C(C)C)NC(=O)OC(C)(C)C)C[C@]2(O)C4(C)C)C(O)C[C@H]2OC[C@@]32OC(C)=O)c1 (stereo partly specified) | 1.00
COc1ccc(OC)c(C(=O)O[C@H]2C3[C@](C)(C(=O)[C@H](OC(=O)CCOCCOCCOCCOCCSSC)C4=C(C)[C@@H](OC(=O)[C@H](O)[C@H](C=C(C)C)NC(=O)OC(C)(C)C)C[C@]2(O)C4(C)C)C(O)C[C@H]2OC[C@@]32OC(C)=O)c1 (stereo partly specified) | 1.74
COc1ccc(OC)c(C(=O)O[C@H]2C3[C@](C)(C(=O)[C@H](OC(=O)CCOCCOCCOCCOCCOCCOCCOCCOCCOCCOCCSSC)C4=C(C)[C@@H](OC(=O)[C@H](O)[C@H](C=C(C)C)NC(=O)OC(C)(C)C)C[C@]2(O)C4(C)C)C(O)C[C@H]2OC[C@@]32OC(C)=O)c1 (stereo partly specified) | 2.10
COc1ccc(OC)c(C(=O)O[C@H]2C3[C@](C)(C(=O)[C@H](OC(=O)N4CCN(CCSSC)CC4)C4=C(C)[C@@H](OC(=O)[C@H](O)[C@H](C=C(C)C)NC(=O)OC(C)(C)C)C[C@]2(O)C4(C)C)C(O)C[C@H]2OC[C@@]32OC(C)=O)c1 (stereo partly specified) | 1.51

Turning now to a further record.
// lookup log10 of solubility for COc1ccc(OC)c(C(=O)O[C@H]2C3[C@](C)(C(=O)[C@H](O)C4=C(C)[C@@H](OC(=O)[C@H](O)[C@H](C=C(C)C)NC(=O)OC(C)(C)C)C[C@]2(O)C4(C)C)C(OC(=O)CCOCCOCCOCCOCCSSC)C[C@H]2OC[C@@]32OC(C)=O)c1 (stereo partly specified) 1.11
